experiment: Dark toxicity against human MCF7 cells after 72 hrs by MTT assay; type: cell-based

| Compound | Unit abbrev | Value modifier | IC50 at 72 h |
| --- | --- | --- | --- |
| OCc1cc2cc3ccccc3cc2cc1O | µM | ≥ | 100 |
| Oc1ccc2cc3ccccc3cc2c1 | µM | = | 28 |
| Oc1cc2cc3ccccc3cc2cc1C(O)(c1ccccc1)c1ccccc1 | µM | = | 20 |

====

experiment: Dark toxicity against human SUM159 cells after 72 hrs by MTT assay; format: cell-based, SUM-159-PT

| Compound | IC50 at 72 h / µM |
| --- | --- |
| OCc1cc2cc3ccccc3cc2cc1O | 11 |
| Oc1ccc2cc3ccccc3cc2c1 | 18 |
| OCc1ccc2cc3ccccc3cc2c1 | 13 |
| Oc1cc2cc3ccccc3cc2cc1C(O)(c1ccccc1)c1ccccc1 | 4 |

====

Collected IC50 at 72 h values appear next to each entry.
assay: Dark toxicity against human H460 cells after 72 hrs by MTT assay; assay type: cell-based, NCI-H460
Assay readout: IC50 at 72 h (µM)

| Compound | Assay readout | Unit abbrev | Value modifier | Reported value |
| --- | --- | --- | --- | --- |
| OCc1cc2cc3ccccc3cc2cc1O | IC50 at 72 h | µM | ≥ | 100 |
| OCc1ccc2cc3ccccc3cc2c1 | IC50 at 72 h | µM | = | 33 |
| Oc1ccc2cc3ccccc3cc2c1 | IC50 at 72 h | µM | = | 23 |
| Oc1cc2cc3ccccc3cc2cc1C(O)(c1ccccc1)c1ccccc1 | IC50 at 72 h | µM | = | 19 |

====

experiment: Photocytotoxicity against HMLE-shEcad cells assessed as growth inhibition irradiated at 350 nm at 4, 24, 48 hrs post compound addition for 5 mins measured after 72 hrs by MTT assay; assay type: functional, cell-based; conditions: Homo sapiens, light or radiation study
Reported IC50 values for the following molecules.

| Compound | IC50 / nM |
| --- | --- |
| OCc1ccc2cc3ccccc3cc2c1 | 1000 |
| Oc1cc2cc3ccccc3cc2cc1C(O)(c1ccccc1)c1ccccc1 | 2000 |
| OCc1cc2cc3ccccc3cc2cc1O | 2000 |
| Oc1ccc2cc3ccccc3cc2c1 | 2000 |

====

experiment: Photocytotoxicity against HMLE-shGFP cells assessed as growth inhibition irradiated at 350 nm at 4, 24, 48 hrs post compound addition for 5 mins measured after 72 hrs by MTT assay; type: cell-based; details: Homo sapiens, light or radiation study
pIC50: −log10 of the molar value.
Measured pIC50 of individual entries

| Compound | pIC50 |
| --- | --- |
| OCc1cc2cc3ccccc3cc2cc1O | 6.15 |
| Oc1cc2cc3ccccc3cc2cc1C(O)(c1ccccc1)c1ccccc1 | 6.00 |
| Oc1ccc2cc3ccccc3cc2c1 | 5.70 |
| OCc1ccc2cc3ccccc3cc2c1 | 6.22 |

====

assay: Dark toxicity against human HCT116 cells after 72 hrs by MTT assay; assay type: cell-based, HCT-116
# IC50 at 72 h per entry
Assay readout: IC50 at 72 h (µM)

| Compound | Value modifier | Reported value |
| --- | --- | --- |
| OCc1cc2cc3ccccc3cc2cc1O | ≥ | 100 |
| Oc1cc2cc3ccccc3cc2cc1C(O)(c1ccccc1)c1ccccc1 | = | 21 |
| OCc1ccc2cc3ccccc3cc2c1 | > | 100 |
| Oc1ccc2cc3ccccc3cc2c1 | = | 27 |

====

system: MCF7; test: Photocytotoxicity against human MCF7 cells assessed as growth inhibition irradiated at 420 nm at 4, 24, 48 hrs post compound addition for 5 mins measured after 72 hrs by MTT assay; assay type: functional, cell-based; conditions: MCF7, light or radiation study

| Compound | Unit abbrev | IC50 |
| --- | --- | --- |
| OCc1ccc2cc3ccccc3cc2c1 | nM | 2000 |
| Oc1ccc2cc3ccccc3cc2c1 | nM | 1000 |
| Oc1cc2cc3ccccc3cc2cc1C(O)(c1ccccc1)c1ccccc1 | nM | 2000 |
| OCc1cc2cc3ccccc3cc2cc1O | nM | 3000 |

====

system: SUM-159-PT; test: Photocytotoxicity against human SUM159 cells assessed as growth inhibition irradiated at 420 nm at 4, 24, 48 hrs post compound addition for 5 mins measured after 72 hrs by MTT assay; format: functional, cell-based; details: light or radiation study
pIC50: −log10 of the molar value.

| Compound | pIC50 |
| --- | --- |
| OCc1cc2cc3ccccc3cc2cc1O | 5.70 |
| Oc1cc2cc3ccccc3cc2cc1C(O)(c1ccccc1)c1ccccc1 | 6.00 |
| Oc1ccc2cc3ccccc3cc2c1 | 5.70 |
| OCc1ccc2cc3ccccc3cc2c1 | 6.00 |

====

test: Dark toxicity against HMLE-shEcad cells after 72 hrs by MTT assay; type: cell-based; conditions: human

| Compound | IC50 at 72 h, µM |
| --- | --- |
| Oc1cc2cc3ccccc3cc2cc1C(O)(c1ccccc1)c1ccccc1 | 2 |
| Oc1ccc2cc3ccccc3cc2c1 | 25 |
| OCc1ccc2cc3ccccc3cc2c1 | 22 |
| OCc1cc2cc3ccccc3cc2cc1O | 17 |

====

system: NCI-H460; assay: Photocytotoxicity against human H460 cells assessed as growth inhibition irradiated at 420 nm at 4, 24, 48 hrs post compound addition for 5 mins measured after 72 hrs by MTT assay; format: functional, cell-based; settings: NCI-H460, light or radiation study

| Compound | IC50 / nM |
| --- | --- |
| Oc1ccc2cc3ccccc3cc2c1 | 2000 |
| OCc1ccc2cc3ccccc3cc2c1 | 2000 |
| Oc1cc2cc3ccccc3cc2cc1C(O)(c1ccccc1)c1ccccc1 | 2000 |
| OCc1cc2cc3ccccc3cc2cc1O | 10000 |
